The measured values listed here are drawn from patent US20180201614A1.

Biological target: IGF1R (Homo sapiens)
Sequence (P08069 31-1367, species assumed): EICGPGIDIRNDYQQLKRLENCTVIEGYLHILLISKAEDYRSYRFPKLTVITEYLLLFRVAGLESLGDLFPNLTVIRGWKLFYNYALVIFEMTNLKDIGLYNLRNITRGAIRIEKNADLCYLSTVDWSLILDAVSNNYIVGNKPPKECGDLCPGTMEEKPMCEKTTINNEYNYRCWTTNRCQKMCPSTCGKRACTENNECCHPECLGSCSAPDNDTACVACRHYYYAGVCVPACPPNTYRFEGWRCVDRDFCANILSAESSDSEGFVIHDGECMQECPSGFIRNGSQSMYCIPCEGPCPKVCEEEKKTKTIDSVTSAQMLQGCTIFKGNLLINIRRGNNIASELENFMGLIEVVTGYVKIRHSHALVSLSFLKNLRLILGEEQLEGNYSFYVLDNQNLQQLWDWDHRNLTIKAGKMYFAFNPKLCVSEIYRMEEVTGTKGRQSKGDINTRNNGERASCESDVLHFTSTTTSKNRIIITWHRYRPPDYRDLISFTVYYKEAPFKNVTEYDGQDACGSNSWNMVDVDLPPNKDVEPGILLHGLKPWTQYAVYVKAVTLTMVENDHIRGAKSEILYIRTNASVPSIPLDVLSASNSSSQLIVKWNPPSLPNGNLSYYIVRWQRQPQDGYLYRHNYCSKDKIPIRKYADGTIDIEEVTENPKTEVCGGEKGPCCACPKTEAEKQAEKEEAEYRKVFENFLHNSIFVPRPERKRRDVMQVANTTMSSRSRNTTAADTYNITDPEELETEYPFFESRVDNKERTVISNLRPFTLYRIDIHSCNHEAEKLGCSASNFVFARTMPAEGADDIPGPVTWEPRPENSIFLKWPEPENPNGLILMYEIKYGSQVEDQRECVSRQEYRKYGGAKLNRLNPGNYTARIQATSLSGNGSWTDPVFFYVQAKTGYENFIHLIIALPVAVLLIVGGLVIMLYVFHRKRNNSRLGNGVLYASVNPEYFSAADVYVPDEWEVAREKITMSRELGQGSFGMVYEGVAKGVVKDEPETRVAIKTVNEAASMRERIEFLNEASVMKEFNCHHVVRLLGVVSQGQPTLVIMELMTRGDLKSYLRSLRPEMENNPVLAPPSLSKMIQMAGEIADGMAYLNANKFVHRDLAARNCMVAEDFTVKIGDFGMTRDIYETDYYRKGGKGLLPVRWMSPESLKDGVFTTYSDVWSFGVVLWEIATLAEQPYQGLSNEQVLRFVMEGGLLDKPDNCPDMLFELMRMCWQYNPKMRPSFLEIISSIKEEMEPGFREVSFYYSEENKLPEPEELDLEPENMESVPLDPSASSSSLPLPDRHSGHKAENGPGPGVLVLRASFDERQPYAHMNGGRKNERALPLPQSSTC
pIC50: −log10 of the molar value.
OBSERVATION_TYPE: pIC50

Identify pIC50 associated with the compound C=CC(=O)N[C@@H]1CN(c2nc(Nc3cn(C4CCN(C)CC4)nc3OC)c3ncc(C)n3n2)C[C@H]1F [Example 4] ≤ 7.00

###

Tested on: H1975 (L858R/T790M) cells
Assay: EGFR cell proliferation assay (CellTiter-Glo), H1975
Format: cell-based
Conditions: Homo sapiens, NCI-H1975, 3-5 days
OBSERVATION_TYPE: IC50

Solved entries (count: 3):
>  <COMPOUND>
C=CC(=O)N[C@@H]1CN(c2nc(Nc3cn(C)nc3OC)c3ncn(C45CC(C4)C5)c3n2)C[C@H]1F (racemic) [Example 6]

>  <OBSERVATION_TYPE>
IC50

>  <OBS_VALUE>
50 to 300 nM

$$$$
>  <COMPOUND>
C=CC(=O)N[C@@H]1CN(c2nc(Nc3cn(CCN(C)C)nc3OC)c3ncc(C)n3n2)C[C@H]1F [Example 5]

>  <OBSERVATION_TYPE>
IC50

>  <OBS_VALUE>
< 50 nM

$$$$
>  <COMPOUND>
C=CC(=O)N[C@@H]1CN(c2nc(Nc3cn([C@H]4CCN(C)C4)nc3OC)c3ncc(C)n3n2)C[C@H]1F [Example 2]

>  <OBSERVATION_TYPE>
IC50

>  <OBS_VALUE>
< 50 nM

$$$$

Identify IC50 associated with the compound C=CC(=O)N[C@@H]1CN(c2nc(Nc3cn(C)nc3OC)c3ncc(C)n3n2)C[C@H]1F [Example 1] < 50 nM

Identify IC50 associated with the compound C=CC(=O)N[C@@H]1CN(c2nc(Nc3cn(C4CCN(C)CC4)nc3OC)c3ncc(C)n3n2)C[C@H]1F [Example 4] < 50 nM
